As a worked illustration, we turn to IC50 data collected for Coagulation factor X (Homo sapiens).
Give bare numbers, in µM.

| SMILES_STRUCTURE | ENDPOINT_UNIT | IC50 |
| --- | --- | --- |
| CN(C(=O)[C@@H]1Cc2ccccc2CN1C(=O)Cc1ccc(Cl)cc1Cl)c1ccc(N2CCCCC2=O)cc1 | µM | 1.3 |
| CCN(C(=O)[C@@H]1Cc2ccccc2CN1C(=O)OCc1ccccc1)c1ccc(N2CCOCC2=O)cc1 | µM | 19 |

For every listed record, write down its IC50.
1. CN(C(=O)[C@@H]1Cc2ccccc2CN1C(=O)OCc1ccccc1)c1ccc(N2CCCCC2=O)cc1
2. O=C(Nc1ccc(N2CCOCC2=O)cc1)[C@H]1Cc2ccccc2CN1C(=O)Cc1ccc(Cl)cc1

[out]
[16.4, 0.27]

FYI, the data here is from ChEMBL document CHEMBL2040721.
